Consider the following compounds; for each one, report its viability, T/C.
System: 439559-082-T-J2-PDC spheroid viability
Test: Anticancer human tumor 439559-082-T-J2-PDC patient-derived colon adenocarcinoma cell line growth inhibition [POLQ]
Settings: second compound 3.16 µM; first compound 0.316 µM; stronger effect = lower value; spheroids with HUVEC and MSC
Give bare numbers, in %.

Some solved cases for reference:
compound	target-entity	result-unit	viability, T/C
COc1ccc([C@@H](O)c2cc(-c3ncnc4cc(N5CCOCC5)ccc34)c(F)cc2Cl)nn1 + Nc1ccc(C#CCN(C(=O)Cc2ncc(C(F)(F)F)cc2C(F)(F)F)c2ccc(F)cc2)nn1	439559-082-T-J2-PDC spheroid viability	%	90.7
CCc1cc2c(N3CCc4c(cc(Cn5ccnc5)cc4-c4cn(C)nc4C(F)(F)F)C3=O)ccnc2c(OC)n1 + Cc1cccc(N(C)C(=O)C2C(O)CCN2c2nc(C)cc(C(F)(F)F)c2C#N)c1	439559-082-T-J2-PDC spheroid viability	%	83.3
C#Cc1c(F)ccc2cc(O)cc(-c3ncc4c(N5CC6CCC(C5)N6)nc(OCC56CCCN5CC(F)C6)nc4c3F)c12 (stereo not given) + COC1C(OC(N)=O)C(O)C(Oc2ccc3c(O)c(NC(=O)c4ccc(O)c(CC=C(C)C)c4)c(=O)oc3c2C)OC1(C)C	439559-082-T-J2-PDC spheroid viability	%	70.4
CCc1cc2c(N3CCc4c(cc(Cn5ccnc5)cc4-c4cn(C)nc4C(F)(F)F)C3=O)cc(C)nc2c(OC)n1 + Cc1cccc(N(C)C(=O)C2C(O)CCN2c2nc(C)cc(C(F)(F)F)c2C#N)c1	439559-082-T-J2-PDC spheroid viability	%	87.6

Continue with the next compound.
*Q* Fill in the blank: the reported viability, T/C of CC1COCCN1c1cc(-c2ccnn2C)c2ccnc(-c3ccn[nH]3)c2n1 (stereo not given) + Cc1cccc(N(C)C(=O)C2C(O)CCN2c2nc(C)cc(C(F)(F)F)c2C#N)c1 is ____.
*A* 47.2

----------
Consider the following molecules; for each one, report its viability, T/C.
Test system: 439559-082-T-J2-PDC spheroid viability
Experiment: Anticancer human tumor 439559-082-T-J2-PDC cell line growth inhibition [POLQ];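 further: spheroids exposed to compounds for seven days before readout; 100% = DMSO vehicle control viability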
Conditions: second compound 1 µM; first compound 0.1 µM; stronger effect = lower value; spheroids with HUVEC and MSC
One number for each entry, in %.

molecule	target-entity	meas-value
CC[C@@]1(O)C(=O)OCc2c1cc1n(c2=O)Cc2cc3c(CN(C)C)c(O)ccc3nc2-1 + COC1C(OC(N)=O)C(O)C(Oc2ccc3c(O)c(NC(=O)c4ccc(O)c(CC=C(C)C)c4)c(=O)oc3c2C)OC1(C)C	439559-082-T-J2-PDC spheroid viability	82.5

Items follow; give viability, T/C for each.
1. COc1cc(C2c3cc4c(cc3C(OC3OC5COC(C)OC5C(O)C3O)C3COC(=O)C23)OCO4)cc(OC)c1O (stereo not given) + COC1C(OC(N)=O)C(O)C(Oc2ccc3c(O)c(NC(=O)c4ccc(O)c(CC=C(C)C)c4)c(=O)oc3c2C)OC1(C)C
2. COc1cccc2c1C(=O)c1c(O)c3c(c(O)c1C2=O)CC(O)(C(=O)CO)CC3OC1CC(N)C(O)C(C)O1 (stereo not given) + Cc1cccc(N(C)C(=O)C2C(O)CCN2c2nc(C)cc(C(F)(F)F)c2C#N)c1
3. COc1cccc2c1C(=O)c1c(O)c3c(c(O)c1C2=O)CC(O)(C(=O)CO)CC3OC1CC(N)C(O)C(C)O1 (stereo not given) + Nc1ccc(C#CCN(C(=O)Cc2ncc(C(F)(F)F)cc2C(F)(F)F)c2ccc(F)cc2)nn1
4. CC1COCCN1c1cc(-c2ccnn2C)c2ccnc(-c3ccn[nH]3)c2n1 (stereo not given) + Cc1cccc(N(C)C(=O)C2C(O)CCN2c2nc(C)cc(C(F)(F)F)c2C#N)c1

*A*
94.7
97.9
85.5
76.9
